The measurements presented in this section are drawn from PubChem BioAssay.

experiment: MELAS cybrid and Rieske KO viability enhancers – cell-based, MELAS cybrids, Rieske KO mouse fibroblasts, CellTiter-Glo, primary screen (AID 1508586); details: MELAS cybrid survival, low glucose, CellTiter-Glo 48 h;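 also: test concentration not given here; z relative to plate mean and SD of compound and empty wells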
Calls of active or inactive are those of the source.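 The calls were made as follows: active = mean z-score across replicates of 1.96 or higher in either the MELAS or the Rieske mutant cell line; inactive = the rest.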 Where a SMILES comes first, the peptide text is derived from it. [ ]: non-standard residue; d: D form. pGlu = O=C1CC[CH](C(=O)O)N1; Thz = O=C(O)[CH]1CSCN1
Possible outcomes: active, inactive

CC(C)N(CCC(c1ccccc1)c1cc(CO)ccc1O)C(C)C (stereo unspecified) ... inactive
CC(C)(Cc1ccc2ccccc2c1)NCC(O)COc1cccc(Cl)c1C#N (stereo unspecified) ... inactive
OCCOc1ccc(C(=C(CCCl)c2ccccc2)c2ccccc2)cc1 ... inactive
O=S(=O)(O)CCN1CCOCC1 ... inactive
CCOC(=O)Nc1cc(-c2ccc(C)c(NS(C)(=O)=O)c2)nn2c(C)nnc12 ... inactive
OB(O)c1ccccc1 ... inactive
O=C1CCC(C(=O)N2CSCC2C(=O)O)N1 (stereo unspecified) ([pGlu]-[Thz]-OH; configuration not given here) ... inactive
COC1C=CC=C(C)C(=O)NC2=CC(=O)C(NCCN(C)C)=C(CC(C)CC(OC)C(O)C(C)C=C(C)C1OC(N)=O)C2=O (stereo unspecified) ... active
CC#C[C@@]1(O)CC[C@H]2[C@@H]3CCC4=CC(=O)CCC4=C3C(c3ccc(N(C)C)cc3)C[C@@]21C (stereo partly specified) ... inactive
CC(NC(=O)C(O)C(C)C)C(=O)NC1C(=O)N(C)CCc2ccccc21 (stereo unspecified) ... inactive
O=C(O)CCCCc1ccccc1 ... inactive
CO/N=C(\C(=O)N[C@@H]1C(=O)N2C(C(=O)O)=C(C[N+]3(C)CCCC3)CS[C@H]12)c1csc(N)n1 ... inactive
c1nc(N2CCOCC2)c2[nH]cnc2n1 ... inactive
COc1cc(N(C)CC2COc3ccccc3O2)nc(N)n1 (stereo unspecified) ... inactive
CCC(=O)OCC(=O)[C@]1(OC(=O)CC)C(C)C[C@H]2[C@@H]3CCC4=CC(=O)C=C[C@]4(C)[C@]3(Cl)C(O)C[C@@]21C (stereo partly specified) ... inactive
O=C(O)C1=CC(O)C(O)C(O)C1 (stereo unspecified) ... inactive

====

assay: viability loss with induced miR-34 in A549 – imaging, A549 dox-inducible miR-34, nuclei and caspase counts, primary screen (AID 1347080); conditions: A549 miR-34 inducible, Hoechst nuclei count, 48 h; measured here: relative caspase fold change +Dox/-Dox; also: test concentration not given here
Catalogue of fold change readings, one per entry.
parameter: fold change

O=c1cc(-c2ccccc2)oc2ccccc12 ... 0.735
CC(=O)OC1CC2CCC3C(CC[C@@]4(C)C3CC([N+]3(C)CCCCC3)C4OC(C)=O)[C@@]2(C)CC1N1CCCCC1 (some centres undefined) ... 1.76
CC1OC(Oc2c(-c3cc(O)c(O)c(O)c3)oc3cc(O)cc(O)c3c2=O)C(O)C(O)C1O (centres undefined) ... 1.01
CC[C@]1(O)CC2CN(CCc3c([nH]c4ccccc34)[C@@](C(=O)OC)(c3cc4c(cc3OC)N(C)C3[C@@](O)(C(N)=O)C(O)[C@]5(CC)C=CCN6CC[C@]43C65)C2)C1 (some centres undefined) ... 1.09
CN1[C@@H](C[C@H](O)c2ccccc2)CCC[C@H]1CC(=O)c1ccccc1 ... 1.15
C=CCOc1ccccc1OCC(O)CNC(C)C (centres undefined) ... 0.727
O=C(NNc1nc2cc(F)ccc2n2cccc12)c1cnccn1 ... 0.345
COc1ccc2cc1Oc1ccc(cc1)C[C@@H]1c3c(cc4c(c3Oc3cc5c(cc3OC)CCN(C)[C@@H]5C2)OCO4)CCN1C ... 1.15
Cc1nc(N=Nc2ccc(C(=O)O)cc2)c(COP(=O)(O)O)c(C=O)c1O ... 0.656
C=CCN1CCc2c(cc(O)c(O)c2Cl)C(c2ccccc2)C1 (centres undefined) ... 1.32
O=C(C=Cc1ccc(O)c(O)c1)OCCc1ccccc1 ... 0.387
CC(=O)OCC(=O)[C@]12N=C(C)O[C@@H]1C[C@H]1[C@@H]3CCC4=CC(=O)C=C[C@]4(C)[C@@H]3C(O)C[C@@]12C (some centres undefined) ... 1.27
NC(=O)C1=CN(C2OC(COP(=O)(O)OP(=O)(O)OC[C@H]3O[C@@H](n4cnc5c(N)ncnc54)C(OP(=O)(O)O)[C@H]3O)C(O)C2O)C=CC1 (some centres undefined) ... 1.18
CC1CN(c2c(F)c(N)c3c(=O)c(C(=O)O)cn(C4CC4)c3c2F)CC(C)N1 (centres undefined) ... 1.47
CS(=O)(=O)c1ccc([C@@H](O)[C@@H](COC(=O)CN)NC(=O)C(Cl)Cl)cc1 ... 1.61
CCn1ccnc1CN(C)C(=O)c1cc(-c2cnc(N)nc2)nc2cc(C)ccc12 ... 1.43
Cc1sc2ncnc(-c3cccc4cccnc34)c2c1C ... 1.66
CCC(NC(C)C)C(O)c1ccc(O)c2[nH]c(=O)ccc12 (centres undefined) ... 1.47
CC1(C)S[C@@H]2[C@H](NC(=O)C(C(=O)O)c3ccsc3)C(=O)N2[C@H]1C(=O)O (some centres undefined) ... 0.678
N=S(=O)(O)Cc1noc2ccccc12 ... 2.62
Cc1n[nH]c(=O)[nH]c1=O ... 1.41
CC(C)C[C@@H](NC(=O)[C@H](Cc1ccccc1)NC(=O)c1cnccn1)B(O)O ... 1.54
CCCCOC(=O)NS(=O)(=O)c1sc(CC(C)C)cc1-c1ccc(Cn2c(CC)nc3c(C)cc(C)nc32)cc1 ... 0.69
CN[C@H]1[C@@H](O)[C@H](O[C@H]2[C@@H](O)[C@@H](OC3OC(CN)=CCC3N)[C@H](N)C[C@@H]2N)OC[C@@]1(C)O (some centres undefined) ... 1.15
c1ccc(-c2noc(-c3cccc4cccnc34)n2)nc1 ... 1.13
O=S(=O)(O)CCCSc1nc2ccccc2s1 ... 0.489
NC(C(=O)NC1C(=O)N2C(C(=O)O)=C(Cl)CSC12)c1ccccc1 (centres undefined) ... 0.686
CN1CCCC1CCO[C@](C)(c1ccccc1)c1ccc(Cl)cc1 (some centres undefined) ... 1.18
O=C1C(Cl)=C(N2CCOCC2)C(=O)N1c1ccc(Cl)c(Cl)c1 ... 0.753
